Biological target: Nonstructural protein 5A (Hepatitis C virus)
Assay: Inhibition of NS5A in HCV genotype 3a infected in HuH7 replicon cells assessed as decrease in viral replication after 3 days by RT-PCR method
Type: cell-based
Settings: Hepatitis C virus subtype 3a
Experimental readout: EC90 (pM)
Give your result in pM as a bare value.

Below: 5 compounds and their reported EC90.
COC(=O)N[C@H](C(=O)N1CCC[C@H]1c1ncc(-c2cc(F)c3c(c2)O[C@@H](c2ccc4c(c2)CCCO4)n2c-3cc3cc(-c4cnc([C@@H]5CCCN5C(=O)[C@@H](NC(=O)OC)C5CCOCC5)[nH]4)ccc32)[nH]1)C(C)C | 9
CCCc1ccc([C@@H]2Oc3cc(-c4cnc([C@@H]5CCCN5C(=O)[C@@H](NC(=O)OC)C(C)C)[nH]4)cc(F)c3-c3cc4cc(-c5cnc([C@@H]6CCCN6C(=O)[C@@H](NC(=O)OC)[C@@H]6CCOC(C)(C)C6)[nH]5)ccc4n32)s1 | 16
CCc1ncc([C@@H]2Oc3cc(-c4cnc([C@@H]5CCCN5C(=O)[C@@H](NC(=O)OC)C(C)C)[nH]4)cc(F)c3-c3cc4cc(-c5cnc([C@@H]6CCCN6C(=O)[C@@H](NC(=O)OC)[C@@H]6CCOC(C)(C)C6)[nH]5)ccc4n32)s1 | 6
COC(=O)N[C@H](C(=O)N1CCC[C@H]1c1ncc(-c2cc(F)c3c(c2)O[C@@H](c2cc4ccccc4s2)n2c-3cc3cc(-c4cnc([C@@H]5CCCN5C(=O)[C@@H](NC(=O)OC)C5CCOCC5)[nH]4)ccc32)[nH]1)C(C)C | 11
COC(=O)N[C@H](C(=O)N1CCC[C@H]1c1ncc(-c2cc(F)c3c(c2)O[C@@H](c2ccc(C4CC4)s2)n2c-3cc3cc(-c4cnc([C@@H]5CCCN5C(=O)[C@@H](NC(=O)OC)C5C[C@@H](C)O[C@@H](C)C5)[nH]4)ccc32)[nH]1)C(C)C (stereo partly specified) | 8

Consider COC(=O)N[C@H](C(=O)N1CCC[C@H]1c1ncc(-c2cc(F)c3c(c2)O[C@@H](c2ccc4c(c2)OCCC4)n2c-3cc3cc(-c4cnc([C@@H]5CCCN5C(=O)[C@@H](NC(=O)OC)C5CCOCC5)[nH]4)ccc32)[nH]1)C(C)C . Its measured EC90 is 8

According to the records, this compound COC(=O)N[C@H](C(=O)N1CCC[C@H]1c1ncc(-c2cc(F)c3c(c2)O[C@@H](c2cc4c(s2)CCC4)n2c-3cc3cc(-c4cnc([C@@H]5CCCN5C(=O)[C@@H](NC(=O)OC)[C@@H]5CCOC(C)(C)C5)[nH]4)ccc32)[nH]1)C(C)C displays EC90 of 9

----------
Assay: Cmax in Wistar Han rat at 10 mg/kg, po by LC/MS method
Format: ADME, organism-based
Design: dose 10 mg/kg, route oral
Details: in vivo
Experimental readout: Cmax (nM)
Report the value in nM with no unit label.

COC(=O)N[C@H](C(=O)N1CCC[C@H]1c1ncc(-c2cc(F)c3c(c2)O[C@@H](c2ccc(C4CC4)s2)n2c-3cc3cc(-c4cnc([C@@H]5CCCN5C(=O)[C@@H](NC(=O)OC)C5CCO[C@H](C)C5)[nH]4)ccc32)[nH]1)C(C)C (stereo partly specified) | 25
COC(=O)N[C@H](C(=O)N1CCC[C@H]1c1ncc(-c2cc(F)c3c(c2)O[C@@H](c2ccc(C4CC4)s2)n2c-3cc3cc(-c4cnc([C@@H]5CCCN5C(=O)[C@@H](NC(=O)OC)C5CCO[C@@H](C)C5)[nH]4)ccc32)[nH]1)C(C)C (stereo partly specified) | 21
COC(=O)N[C@H](C(=O)N1CCC[C@H]1c1ncc(-c2ccc3c(c2)cc2n3[C@H](c3ccc4c(c3)OCCC4)Oc3cc(-c4cnc([C@@H]5CCCN5C(=O)[C@@H](NC(=O)OC)C5CCOCC5)[nH]4)cc(F)c3-2)[nH]1)C(C)C | 10
CCc1ccc([C@@H]2Oc3cc(-c4cnc([C@@H]5CCCN5C(=O)[C@@H](NC(=O)OC)C(C)C)[nH]4)cc(F)c3-c3cc4cc(-c5cnc([C@@H]6CCCN6C(=O)[C@@H](NC(=O)OC)[C@@H]6CCOC(C)(C)C6)[nH]5)ccc4n32)s1 | 110

Next:
Entry under test: CCc1ncc([C@@H]2Oc3cc(-c4cnc([C@@H]5CCCN5C(=O)[C@@H](NC(=O)OC)C(C)C)[nH]4)cc(F)c3-c3cc4cc(-c5cnc([C@@H]6CCCN6C(=O)[C@@H](NC(=O)OC)[C@@H]6CCOC(C)(C)C6)[nH]5)ccc4n32)s1 . Its Cmax was 10

----------
Experiment: Tmax in Wistar Han rat at 300 mg/kg, po by LC/MS method
Type: ADME, organism-based
Details: in vivo
Recorded Tmax values for a group of compounds are listed next.
Reply with just the number (in h).

Record summary for COC(=O)N[C@H](C(=O)N1CCC[C@H]1c1ncc(-c2cc(F)c3c(c2)O[C@@H](c2ccc(C4CC4)s2)n2c-3cc3cc(-c4cnc([C@@H]5CCCN5C(=O)[C@@H](NC(=O)OC)C5C[C@@H](C)O[C@H](C)C5)[nH]4)ccc32)[nH]1)C(C)C (some centres undefined) : reported Tmax = 7

What the record says about COC(=O)N[C@H](C(=O)N1CCC[C@H]1c1ncc(-c2cc(F)c3c(c2)O[C@@H](c2ccc(C4CC4)s2)n2c-3cc3cc(-c4cnc([C@@H]5CCCN5C(=O)[C@@H](NC(=O)OC)[C@@H]5CCOC(C)(C)C5)[nH]4)ccc32)[nH]1)C(C)C : Tmax is 5

Entry under test: COC(=O)N[C@H](C(=O)N1CCC[C@H]1c1ncc(-c2cc(F)c3c(c2)O[C@@H](c2ccc(C4CC4)s2)n2c-3cc3cc(-c4cnc([C@@H]5CCCN5C(=O)[C@@H](NC(=O)OC)C5C[C@@H](C)O[C@@H](C)C5)[nH]4)ccc32)[nH]1)C(C)C (some centres undefined) . Its Tmax was 6

Tmax for COC(=O)N[C@H](C(=O)N1CCC[C@H]1c1ncc(-c2cc(F)c3c(c2)O[C@@H](c2ccc(C4CC4)s2)n2c-3cc3cc(-c4cnc([C@@H]5CCCN5C(=O)[C@@H](NC(=O)OC)C5CCOCC5)[nH]4)ccc32)[nH]1)C(C)C is 4

----------
Test system: Nonstructural protein 5A (Hepatitis C virus), Q5L478 [Y93H]
Sequence (whole entry): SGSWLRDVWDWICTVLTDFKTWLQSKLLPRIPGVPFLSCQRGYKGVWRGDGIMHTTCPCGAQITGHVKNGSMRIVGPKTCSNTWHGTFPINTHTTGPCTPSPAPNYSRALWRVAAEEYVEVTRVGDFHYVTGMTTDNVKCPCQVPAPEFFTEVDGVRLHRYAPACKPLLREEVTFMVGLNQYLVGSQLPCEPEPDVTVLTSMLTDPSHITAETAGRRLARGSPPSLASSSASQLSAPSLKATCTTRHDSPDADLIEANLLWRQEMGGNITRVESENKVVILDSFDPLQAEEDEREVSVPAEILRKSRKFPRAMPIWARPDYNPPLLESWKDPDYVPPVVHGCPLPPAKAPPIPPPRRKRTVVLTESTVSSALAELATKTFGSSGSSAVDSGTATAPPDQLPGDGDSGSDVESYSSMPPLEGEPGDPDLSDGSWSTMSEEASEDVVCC
Assay: Inhibition of NS5A Y93H mutant in HCV genotype 1a infected in HuH7 replicon cells assessed as decrease in viral replication after 3 days by RT-PCR method
Format: cell-based
Conditions: Hepatitis C virus subtype 1a
Recorded measurements of EC90, one per entry
Numbers only; they are read as pM.

COC(=O)N[C@H](C(=O)N1CCC[C@H]1c1ncc(-c2cc(F)c3c(c2)O[C@@H](c2ccc4c(c2)O[C@@H](C)CC4)n2c-3cc3cc(-c4cnc([C@@H]5CCCN5C(=O)[C@@H](NC(=O)OC)[C@@H]5CCOC(C)(C)C5)[nH]4)ccc32)[nH]1)C(C)C | 348

API: the following record is the query input.
GET /value?item= COC(=O)N[C@H](C(=O)N1CCC[C@H]1c1ncc(-c2cc(F)c3c(c2)O[C@@H](c2ccc(C4CC4)s2)n2c-3cc3cc(-c4cnc([C@@H]5CCCN5C(=O)[C@@H](NC(=O)OC)C5CCOCC5)[nH]4)ccc32)[nH]1)C(C)C &field=EC90 returns 18

----------
Molecular target: Nonstructural protein 5A (Hepatitis C virus)
Experiment: Inhibition of NS5A in HCV genotype 3a infected in HuH7 replicon cells assessed as decrease in viral replication after 3 days by RT-PCR method
Format: cell-based
Details: Hepatitis C virus subtype 3a
Experimental readout: EC90 (nM)
Numeric only. Scale: nM

COC(=O)N[C@H](C(=O)N1CCC[C@H]1c1ncc(-c2cc(F)c3c(c2)O[C@@H](c2ccc4c(c2)OCCC4)n2c-3cc3cc(-c4cnc([C@@H]5CCCN5C(=O)[C@@H](NC(=O)OC)[C@@H]5CCOC(C)(C)C5)[nH]4)ccc32)[nH]1)C(C)C | 0.007

Here is the next item to consider.
Consider CC[C@@H]1CC([C@H](NC(=O)OC)C(=O)N2CCC[C@H]2c2ncc(-c3ccc4c(c3)cc3n4[C@H](c4ccc(C5CC5)s4)Oc4cc(-c5cnc([C@@H]6CCCN6C(=O)[C@@H](NC(=O)OC)C(C)C)[nH]5)cc(F)c4-3)[nH]2)C[C@H](CC)O1 (some centres not stated) . Its measured EC90 is 0.062

Origin of values: ChEMBL document CHEMBL4177770
